System: Staphylococcus aureus X400
Experiment: MIC, standard agar-dilution assay (Table V)
Type: cell-based
Settings: Staphylococcus aureus; S. aureus X400, methicillin-resistant strain; agar dilution; read-out: MIC
Quantity Measured: MIC (µg/mL)

- CCC1OC(=O)CC(O)C(C)C(OC2OC(C)C(O)C(N(C)C)C2O)C(CC=O)CC(C)C(=O)C=CC(C)=CC1CSc1ccccc1 (stereo not shown) [Compound 2, 23-Deoxy-23-(phenyl)thio-OMT]: 0.125
- CCC1OC(=O)CC(O)C(C)C(OC2OC(C)C(O)C(N(C)C)C2OC(C)=O)C(CC=O)CC(C)C(=O)C=CC(C)=CC1C[n+]1ccccc1 (stereo not shown) [Compound 1]: 64
- CCC1OC(=O)CC(O)C(C)C(OC2OC(C)C(O)C(N(C)C)C2O)C(CC=O)CC(C)C(=O)C=CC(C)=CC1CSc1nnc(C)o1 (stereo not shown) [Compound 4]: 0.5
- CCC1OC(=O)CC(O)C(C)C(OC2OC(C)C(O)C(N(C)C)C2O)C(CC=O)CC(C)C(=O)C=CC(C)=CC1CNC(=O)[C@H](NC(=O)OC(C)(C)C)c1ccccc1 (single isomer, unassigned) [Compound 11]: 4

* * *

Test system: Escherichia coli EC14
Assay: MIC, standard agar-dilution assay (Table V)
Format: cell-based
Conditions: Escherichia coli; E. coli EC14; agar dilution; read-out: MIC
Quantity Measured: MIC (µg/mL)

• CCC1OC(=O)CC(O)C(C)C(OC2OC(C)C(O)C(N(C)C)C2O)C(CC=O)CC(C)C(=O)C=CC(C)=CC1CSc1nnc(C)s1 (stereo not drawn) = 64
• CCC1OC(=O)CC(O)C(C)C(OC2OC(C)C(O)C(N(C)C)C2O)C(CC=O)CC(C)C(=O)C=CC(C)=CC1CN=[N+]=[N-] (stereo not drawn) = 32

* * *

Recorded MIC values for a group of compounds are listed next.
Tested on: Staphylococcus epidermidis EPI1
Assay: MIC, standard agar-dilution assay (Table V)
Format: cell-based
Details: Staphylococcus epidermidis, EPI1
Quantity Measured: MIC (µg/mL)

• CCC1OC(=O)CC(O)C(C)C(OC2OC(C)C(O)C(N(C)C)C2O)C(CC=O)CC(C)C(=O)C=CC(C)=CC1CSC(C)=O (stereo not drawn) [Compound 7, 23-Deoxy-23-(acetyl)thio-OMT] = 0.125
• CCC1OC(=O)CC(O)C(C)C(OC2OC(C)C(O)C(N(C)C)C2O)C(CC=O)CC(C)C(=O)C=CC(C)(OC)C2CC12 (stereo not drawn) [Compound 17] = 2
• CCC1OC(=O)CC(O)C(C)C(OC2OC(C)C(O)C(N(C)C)C2O)C(CC=O)CC(C)C(=O)C=CC(C)=CC1CN (stereo not drawn) [Compound 9, 23-Deoxy-23-amino-OMT] = 8
• CCC1OC(=O)CC(O)C(C)C(OC2OC(C)C(O)C(N(C)C)C2O)C(CC=O)CC(C)C(=O)C=CC(C)=CC1CNC(=O)Cc1ccccc1 (stereo not drawn) [Compound 10, 23-Deoxy-23-N-(phenylacetyl)amino-OMT] = 0.25
• CCC1OC(=O)CC(O)C(C)C(OC2OC(C)C(O)C(N(C)C)C2O)C(CC=O)CC(C)C(=O)C=CC(C)=CC1CSc1n[nH]c(=O)c(=O)n1C (stereo not drawn) [Compound 6] = 4
• CCC1OC(=O)CC(O)C(C)C(OC2OC(C)C(O)C(N(C)C)C2O)C(CC=O)CC(C)C(=O)C=CC(C)(OCCc2ccccc2)C2CC12 (stereo not drawn) [Compound 18] = 1

* * *

Recorded MIC values for a group of molecules are listed next.
System: Mycoplasma gallisepticum
Assay: MIC, broth-dilution microtiter test (Table VII)
Type: cell-based
Details: Mycoplasmoides gallisepticum; M. gallisepticum; broth-dilution microtiter; read-out: MIC
Quantity Measured: MIC (µg/mL)

* CCC1OC(=O)CC(O)C(C)C(OC2OC(C)C(O)C(N(C)C)C2O)C(CC=O)CC(C)C(=O)C=CC(C)=CC1CNC(=O)[C@H](NC(=O)OC(C)(C)C)c1ccccc1 (single isomer, unassigned) | 0.78
* CCC1OC(=O)CC(O)C(C)C(OC2OC(C)C(O)C(N(C)C)C2O)C(CC=O)CC(C)C(=O)C=CC(C)=CC1CSC(C)=O (centres unmarked) | 0.19
* CCC1OC(=O)CC(O)C(C)C(OC2OC(C)C(O)C(N(C)C)C2O)C(CC=O)CC(C)C(=O)C=CC(C)=CC1CN=[N+]=[N-] (centres unmarked) | 0.39
* CCC1OC(=O)CC(O)C(C)C(OC2OC(C)C(O)C(N(C)C)C2O)C(CC=O)CC(C)C(=O)C=CC(C)=CC1CSc1nnc(C)o1 (centres unmarked) | 0.39
* CCC1OC(=O)CC(O)C(C)C(OC2OC(C)C(O)C(N(C)C)C2O)C(CC=O)CC(C)C(=O)C=CC(C)=CC1CSc1n[nH]c(=O)c(=O)n1C (centres unmarked) | 6.25

* * *

Recorded MIC values for a group of compounds are listed next.
Test system: Staphylococcus epidermidis EPI2
Experiment: MIC, standard agar-dilution assay (Table V)
Format: cell-based
Conditions: Staphylococcus epidermidis, EPI2
Where a name gives a salt, the structure may show the parent alone.
Quantity Measured: MIC (µg/mL)

* CCC1OC(=O)CC(O)C(C)C(OC2OC(C)C(O)C(N(C)C)C2O)C(CC=O)CC(C)C(=O)C=CC(C)(OCCc2ccccc2)C2CC12 (stereo not shown) | 2
* CCC1OC(=O)CC(O)C(C)C(OC2OC(C)C(O)C(N(C)C)C2O)C(CC=O)CC(C)C(=O)C=CC(C)=CC1CN (stereo not shown) | 8
* CCC1OC(=O)CC(O)C(C)C(OC2OC(C)C(O)C(N(C)C)C2O)C(CC=O)CC(C)C(=O)C=CC(C)=CC1CNC(=O)Cc1ccccc1 (stereo not shown) | 1
* CCC1OC(=O)CC(O)C(C)C(OC2OC(C)C(O)C(N(C)C)C2O)C(CC=O)CC(C)C(=O)C=CC(C)=CC1CSC(C)=O (stereo not shown) | 0.125
* CCC1OC(=O)CC(O)C(C)C(OC2OC(C)C(O)C(N(C)C)C2O)C(CC=O)CC(C)C(=O)C=CC(C)=CC1CNC(=O)[C@H](N)c1ccccc1 (single isomer, unassigned) [Compound 12, bis(trifluoroacetate) salt] | 8
* CCC1OC(=O)CC(O)C(C)C(OC2OC(C)C(O)C(N(C)C)C2O)C(CC=O)CC(C)C(=O)C=CC(C)=CC1CN=[N+]=[N-] (stereo not shown) | 0.25
* CCC1OC(=O)CC(O)C(C)C(OC2OC(C)C(O)C(N(C)C)C2O)C(CC=O)CC(C)C(=O)C=CC(C)(OC)C2CC12 (stereo not shown) | 2

* * *

Tested on: Haemophilus influenzae R252
Assay: MIC, standard agar-dilution assay (Table V)
Assay type: cell-based
Settings: Haemophilus influenzae, R252
Rule for this label: 1 means MIC is less than 4 mg/L; 0 means MIC is at least 4 mg/L.

* CCC1OC(=O)CC(O)C(C)C(OC2OC(C)C(O)C(N(C)C)C2O)C(CC=O)CC(C)C(=O)C=CC(C)=CC1CNC(=O)Cc1ccccc1 (centres unmarked) [Compound 10, 23-Deoxy-23-N-(phenylacetyl)amino-OMT] | 1
* CCC1OC(=O)CC(O)C(C)C(OC2OC(C)C(O)C(N(C)C)C2O)C(CC=O)CC(C)C(=O)C=CC(C)=CC1CSc1nnnn1C (centres unmarked) [Compound 5] | 1
* CCC1OC(=O)CC(O)C(C)C(OC2OC(C)C(O)C(N(C)C)C2O)C(CC=O)CC(C)C(=O)C=CC(C)=CC1CF (centres unmarked) [Compound 15, 23-Deoxy-23-fluoro-OMT] | 1
* CCC1OC(=O)CC(O)C(C)C(OC2OC(C)C(O)C(N(C)C)C2O)C(CC=O)CC(C)C(=O)C=CC(C)=CC1CSC(C)=O (centres unmarked) [Compound 7, 23-Deoxy-23-(acetyl)thio-OMT] | 1
* CCC1OC(=O)CC(O)C(C)C(OC2OC(C)C(O)C(N(C)C)C2O)C(CC=O)CC(C)C(=O)C=CC(C)=CC1CNC(=O)[C@H](NC(=O)OC(C)(C)C)c1ccccc1 (single isomer, unassigned) [Compound 11] | 0
* CCC1OC(=O)CC(O)C(C)C(OC2OC(C)C(O)C(N(C)C)C2O)C(CC=O)CC(C)C(=O)C=CC(C)(OC)C2CC12 (centres unmarked) [Compound 17] | 0
* CCC1OC(=O)CC(O)C(C)C(OC2OC(C)C(O)C(N(C)C)C2O)C(CC=O)CC(C)C(=O)C=CC(C)(OCCc2ccccc2)C2CC12 (centres unmarked) [Compound 18] | 0
* CCC1OC(=O)CC(O)C(C)C(OC2OC(C)C(O)C(N(C)C)C2O)C(CC=O)CC(C)C(=O)C=CC(C)=CC1CSc1n[nH]c(=O)c(=O)n1C (centres unmarked) [Compound 6] | 0
* CCC1OC(=O)CC(O)C(C)C(OC2OC(C)C(O)C(N(C)C)C2O)C(CC=O)CC(C)C(=O)C=CC(C)=CC1CN=[N+]=[N-] (centres unmarked) [Compound 8, 23-Deoxy-23-azido-OMT] | 1
* C=C1C=CC(=O)C(C)CC(CC=O)C(OC2OC(C)C(O)C(N(C)C)C2O)C(C)C(O)CC(=O)OC(CC)C2CC12 (centres unmarked) [Compound 16] | 0

Every entry's value here was drawn from patent US4459290A.
